Measurement record for PTP1B (Homo sapiens, UniProt P18031); quantity recorded: pIC50.
Numbers only, as −log10 of the molar value.

Answered cases to consult:
Qu. Tell me the measured pIC50 of COC(=O)N[C@@H](Cc1ccccc1)C(=O)N[C@@H](Cc1ccc(NS(=O)(=O)O)cc1)c1nc(C)c(-c2ccccc2)s1 [compound 78] , please.
Ans. 6.77

Qu. Consider the molecule COC(=O)N[C@@H](Cc1ccccc1)C(=O)N[C@@H](Cc1ccc(NS(=O)(=O)O)cc1)c1cscn1 [compound 76] and give its measured pIC50.
Ans. 6.43

// switching to the query molecule
Qu. Would you kindly share the measured pIC50 for CCc1csc([C@H](Cc2ccc(NS(=O)(=O)O)cc2)NC(=O)[C@H](Cc2ccccc2)NC(=O)CNC(=O)OC)n1 [compound 80] ?
Ans. 6.52
